# TESTED_ON: T1, recombinant human IL-12 (rhIL-12) (human, UniProt P29459 23-219; P29460 23-328)
# T1 chain 1: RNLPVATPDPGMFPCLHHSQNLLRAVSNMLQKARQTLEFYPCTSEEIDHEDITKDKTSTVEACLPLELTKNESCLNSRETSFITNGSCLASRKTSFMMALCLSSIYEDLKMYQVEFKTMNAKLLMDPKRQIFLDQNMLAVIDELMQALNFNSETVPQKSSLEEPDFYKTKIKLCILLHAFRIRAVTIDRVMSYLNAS
# T1 chain 2: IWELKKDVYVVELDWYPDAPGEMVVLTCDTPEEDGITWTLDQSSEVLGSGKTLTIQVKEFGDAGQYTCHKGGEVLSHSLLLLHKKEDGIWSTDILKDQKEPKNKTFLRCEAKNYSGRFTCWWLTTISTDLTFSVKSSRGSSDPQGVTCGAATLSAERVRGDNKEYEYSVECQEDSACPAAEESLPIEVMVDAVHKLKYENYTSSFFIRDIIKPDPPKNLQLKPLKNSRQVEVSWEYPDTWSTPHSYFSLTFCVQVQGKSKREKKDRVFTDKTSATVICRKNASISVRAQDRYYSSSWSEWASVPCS
# TEST_DESCRIPTION: BIAcore
OBSERVABLE: koff (s⁻¹)
Numeric only. Scale: s⁻¹

Example entries begin here.
ANDQRPS [Y61 L50 A] ... 0.000372
GNDIRPS [Y61 L53 I] ... 0.000855

Entry FNDQRPS [Y61 L50 F] has what koff?
0.0348

Entry TNDQRPS [Y61 L50 T] has what koff?
0.000272

Entry LNDQRPS [Y61 L50 L] has what koff?
0.000616
